assay: yeast display, Sf9 membrane polyspecificity reagent, FACS + sequencing; frameworks hold sequencing errors
quantity.name: polyreactivity (PSR sort gate)

QVQLVESGGGLVQAGGSLRLSSAASGSTFLYVMGWYRQAPGKERELVAAISESGGSTYYADSVKGRFTISRDNAKNTVYLQMNSLKPEDTAVYYCAADLPTGLQYRYYRVDYWGHGTQVTVSS :: low polyreactivity
QVQLVESAGGLVQAGGSLRLSCAASGSTFPWNAMGWDRQAPGKERELVAAISKSGGRTYYADSVKGRFTISRDNAKNTVYLQMNSLKPVDTAVYYCAKRYALSVYYRLYDYWGQGTQVTVSS :: high polyreactivity
QVQLVESGGGLVQAGGSLRISCAASGSIFYGYAMGWYRQAPGKERELVAAITWSGGSTYYADSVKGRFTISRDNAKNTVYLQMNSLNPEDTAVYFCNAVSTRFRVRTSDYWGQGTQVTVSS :: high polyreactivity
QVQLVESGGGLFQAGGSLRLSCAASGSTFVYNDMGWYRKATGKERELVAYISTSGGSTYYADSVKGRFTISRDNAKNTVYLQMNSLKPEDTAVYYCNAKRSGPWFLHVPVYYWGQGTQVTVSS :: low polyreactivity

Req: Respond only with polyreactivity (PSR sort gate) recorded for QVQLVESGGGLVQAGGSLRLSCAASGRIFPYYAMGWYRQAPGKERELVATITSGGSTYYADSVKGRFTISRDNAKNTVYLQMNSLKPEDTAVYYCAARYPSIYFYRYDYWGQGNQVTVSS
Resp: high polyreactivity

----------
assay: yeast display, Sf9 membrane polyspecificity reagent, FACS + sequencing; frameworks hold sequencing errors
quantity.name: polyreactivity (PSR sort gate)

Record excerpt, results attached:
QVQLVESGGGLVQAGGSLRLSCAASGSTFVAYAMGWYRQAPGKERELVAAITYSGGRTYYADSVKGRFTISRDNAKNTVYLQMNSLKPEDTAVYSCAATGVFRDEYWGQGTQVTVSS :: low polyreactivity
QVQLVESGGGLVQAGGSLRLSCAASGIILSYYVMGGYRQAPGNATELVAAISLRGGTTYYADSVKGRFTISRDNANTTVYIQMNSLKPEDTAVYYCAAQRPGFGYEYDYWGQGTQVTVSS :: high polyreactivity
QVQLVESGGGLVQAGGSLRLSCADSGSIFLPYAMGCYRKAPGKERELVAAITWGGDSTYADSVKGRFTISRDNAKNTVYLQMNSQKPEDTAVYYCAAGAGFESDYWGQGTQVTVSS :: low polyreactivity
QVQLVESGGGLVQAGGSLRLSCAASGRTFAFYAMGWYRQAPGKERELVAVITKSGGITYYADSVKGRFTISRDNAKNTVYLQMKSLKPEDTAVYYCAADYRYTPNYLYYYWGQGTQVTVSS :: low polyreactivity
QVQLVESGGGLVQAGGSLRLSCAASGRIFVFYAMGWYRQAPGKERELVAAITASSTRTYYADSVKGRFTISRDNAKNTFYLQMNSLKPEDTAVYYCAADRYYWGQGTQVTVSS :: low polyreactivity

Req: Please list polyreactivity (PSR sort gate) recorded for the sequence HVQLVESGGGLVQAGGSLRLSCAASGRIFGYYAIGWYRQATRKERELVAAITINGRRTYYADSVKGRFTISRDNAKNTVYLQMKSLKPEDTAVYLCTATSRYNRLGYWGQGTQVSVSS
Resp: high polyreactivity

Req: Specify polyreactivity (PSR sort gate) for QVQLVESGGGLVQAGGSLRLSCAASGSIFTYYAMGWYRQAPGKERELVAAISYSGGTTYYADSVKGRFTISRDNAKNTVYLQMNSLKPEDTAVYYCNVDADYESQWLSVGYDYWGQGTQVTVSS and stop.
Resp: low polyreactivity

Req: Give me measured polyreactivity (PSR sort gate), please, for this sequence: QVQLVESGGGLVQAGGSLRLSCAASGSTFYYYAMGWYRQAPGKERELVAAITLRGTSTYYADSVKGRFTISRDNAKNTVYLQMNRLKPEDTAVYYCAVETYYSIFDIYDYWGQGTQVTVSS
Resp: low polyreactivity

Req: Name the recorded polyreactivity (PSR sort gate) of the item KVQLVESGRALVQAGGSLRLSCAASGSTFGNNAMGWNRPAPGKERELVATIDDTTVSTNYADSVKGRFTISRDNAKNTVYLQMTCLKPEDTAVYYCSADDVDGSPYDYWGQGTQGTVSS in your answer.
Resp: low polyreactivity

Req: // fetch polyreactivity (PSR sort gate) given entry QVQLVESGGGLVQAGGSLRLSCAASGFTFISNAMGWYRQAPGKERELVAAISSSGGRTYYADSVKGRFTISRDNAKNTVYLQMNRLKPEDTAVYYCNADRSLLYSRKIEYDYWGQGTQVTVSS
Resp: low polyreactivity

Req: Tell me polyreactivity (PSR sort gate) reported for QVQLVESGGGLVQAGGSLRLSCAASGSIFGLNAMGWYRQAPGKERELVAAISCGSTNYADSVKGRFTISRDNAKYTVYLQMNSLKPEDTAVYYCAARARRRYYYWGQGTQVTVSS
Resp: high polyreactivity

Req: Return reported polyreactivity (PSR sort gate). Input sequence: QVQLVESGGGLVQAGGSLRLSCAASGFIFWDYALGWYRQAPGKEREFVANISRSVGSTYYADSVKGRFTISRDNAKNTVYLQMYTLKPEDTAVYYCAAVTWGEGFDYWGQGTQVTVSS
Resp: low polyreactivity

Req: Give a short answer stating reported polyreactivity (PSR sort gate) for QVQLVDSGGGLVQAGGSLRLSCAASGRIFIVNPMGRYRQAPGKEREFVAAITSRGGITYYADSVKGRFTISRDNAKNTVYLQMNTLKPEDTAVYYFAAGYISWGSGNWGVTPYDYWGQGTQVTVSS .
Resp: high polyreactivity

Req: Indicate the recorded polyreactivity (PSR sort gate) value for this sequence: QVQLVESGGGLVQAGGSLRFSCAASGFTFSVYAMGWYRQAPGTEMELVAAIHWSGGSTYYADSVKGRFTISRDNAKNTVYLQMNSLKPEDTAVYYCNTLYWYTRHVVDYWGQGTQVTVSS
Resp: high polyreactivity

Req: Please report polyreactivity (PSR sort gate) for the following sequence: QVQLVESGGGLVQAGGSLRLSCAASGSTFVANAMGWYRQAPGKERELVAAISGAGGGTYYADSVKGRFTISRDNAKNTVYLQMNSLKPEDTAVYYCAAVPWYYYHYWVSHPYGGDYWGQGTQVTVSS
Resp: low polyreactivity

Req: Hello, please tell me recorded polyreactivity (PSR sort gate) for this one: QVQLVESGGGFVQAGGSLRLSCAASGRIFKWYAMGWYIQAPGKERELVAAITSGGSTYYADSVKGRFTISRDNAKNTVYLQMNSLKPEDTAVYYCNTALTRWYNQYDYWGQGTLVTVSS
Resp: high polyreactivity

Req: Could you please provide reported polyreactivity (PSR sort gate) for QVQLVESGGGLVQAGGSLRLICAASGSTFDSYAMGWYRQAPGKERELVAAISRSGGRTYYADSVKGRFTISRDNAKNTVYLQMNSLKPEDTAGYYCAAPVKVGHSLSGGDYWGQGTQVTVSS ? Thanks!
Resp: high polyreactivity

Req: Annotate the sequence QVQLVDSGGGLVQAGGSLRLSCAASGSTFKINAMGWYRQAPGKERELVAAISSRGGPTYYADSVKGRFTISRDNAKNTVYLQMNRLKPEDTAVYYSAKRRGGSRPYYYWGQGTQVTVSS with its measured polyreactivity (PSR sort gate).
Resp: high polyreactivity

Req: Determine its reported polyreactivity (PSR sort gate): QVQLVESGGGLVQAGGSLRLSCAASGYTFRAYVMGWYRQAPGKERELVAGITRRGGTTYYADSVKGRFTISRDNAKNTVYLQMNSLKPEDTAVYYCNAVFRSGSIPYDSWGQGTQVTVSS
Resp: high polyreactivity

Req: Give the value of polyreactivity (PSR sort gate) reported for the following: QVQLVESGGGLLQAGGSLRLSCAASGNIFYRYAMGWYRQAPGKERELVAAISGNSGNTYYADSVKGRFTISRDNAKNTVYLQIHSLNPEDTAVYYSAAERRAFGHYSGGQGTQVTVSS
Resp: high polyreactivity

Req: Assign polyreactivity (PSR sort gate) to the following record: QVQLVESGGGLVQAGGSLRLSCAASGSTFSYYAMGWYRQAPGKERELVADISSGGSTNYADSVKGRFTISRDNAKNTVYLQMNSLKPEDTAVYYCNRRYSYYDGFDYWGQGTQVTLSS
Resp: low polyreactivity

----------
assay: yeast display, Sf9 membrane polyspecificity reagent, FACS + sequencing; frameworks hold sequencing errors
quantity.name: polyreactivity (PSR sort gate)

Known polyreactivity (PSR sort gate) results, listed for orientation:
HVQLVESGGGLVQAGGSLRLSCAASGRIFRKYAMGWYRQAPGKERELVAVITGSAGSTYYADSVKGRFTISRDNAKNTVYLQMNSLKPEDTAVYYCAKVSTSWDYGIYPFDEGYYWGQGTKVTVSS :: low polyreactivity
QVQLVESGGGLVQAGGSLRLSCAASVRIFYRYGMGLYRQAPGKERELVASITRGGSTYYADSVKGRFTISRDNAKNTVYLQMNSLKPEDTAVYYCATKSSAGYDYWGQGTQVTVSS :: low polyreactivity
QVQLVESGGGLVQAGGSLRLSCAASGYIFVPYALGWYRQAPGKERELVASITGGGSTNYADSVKGRFTISRDNAKNTVYLQMNSLKPEDTAVYYCAAVLGGGEKGGRNRRFDSWGQGTQVTVSS :: low polyreactivity
QVQLVESGGGLVQAGGSLRLSCAASGFTFYVYAMGWYRQAPGKERELVAAISRGGSTYYADSVKGRFTISRDNAKNTVYLQMNSLKPEDTAVYYCNRVPYVSSSKVRYSNGFDYWGQGTQVTVSS :: low polyreactivity
QVQLVESGGGLVQAGGSLRLSCAASGGTFYNYAMGWYRQAPGKERELVAAITYSGGITYYADSVKGRFTISRDNAKNTVYLQMNSLKPEDTAVYYCNTDGINSSVVVVDDYWMDYWGQGTQVTVSS :: low polyreactivity

Req: Dear colleague, please send me the reported polyreactivity (PSR sort gate) for QVQLVESGGGLVQAGGSLRLSCAASGSIFRGYVMGWYRQAPGKERELVAAIRWRGGDTRYADSVKGRFTISRDNAKNTVYLQMNSLKPEDTAVYYCAAQYRKTQYQKKYDYWGQGTQVTVSS when you can.
Resp: high polyreactivity

Req: Answer with the recorded polyreactivity (PSR sort gate) for the sequence listed here: QVQLVESGGGLVQAGRSLRLSCAASGFTFIRYDMGWYRQALGKETELVATITRRGGSTYYADSVKGRFTISRDNAKNTVYLQMNSLKPEDTAVYYCNRDYVTYGKYYYWGQGTQVTVSS
Resp: high polyreactivity

Req: Return value of polyreactivity (PSR sort gate) for input QVQLVESGGGLVQAGGSLRLSCAASGFTFTSYVMGWSRQAPGKEREFVAAITRSAGGTYYADSVKGRFTISRDNAKNTVYLQMNSLKPEDTAVYYCAAVYRSGSRYYLGWYNYWGQGTQVTVSS , no commentary.
Resp: high polyreactivity

Req: Given QVQLVESGGGLVQAGGSLRLSCAASGSIFGYNTMGWYIQAPGKERELVATITRGGSTHYADSVKGRFTISRDNAKNTVYLQMNSLKPEDTAVYYCAATRLSYVRLYRFSQQYYYWGQGTQVTVSS , respond with its polyreactivity (PSR sort gate).
Resp: high polyreactivity

Req: Give me measured polyreactivity (PSR sort gate), please, for this sequence: QVQLVESGGGLVQAGGSLRLSCAASGRIFWHNAMGWYRQAPGKERELVAAISSRGGSTSYADSVKGRFTISRDNAKNTVYLQMNSLKPEDTAVYYCNARNQGYYRVWGYRGDYWGQGTQVTVSS
Resp: low polyreactivity

Req: In one line, give reported polyreactivity (PSR sort gate) of the entry QVQLVESGGGLVQAGGSLRLSCAASGSISSVNVMGWYRQAPGKERELVAAISSGTSTHYADSVKGRFTISRDNAKNTVYLQMNSLKPEVTAVYYCNKTSFLVKLDYWGQGTQVTVSS .
Resp: low polyreactivity

Req: # return recorded polyreactivity (PSR sort gate) for entry QVQLVESGGGLVQAGGSLRLSSAASGSIFPKNTMGWYRQAPGKERELVAAISKSGGSTYYADSVKGRFTISRDNAKNTVYLQMNSLKPEDTAVYYCAAALGLRSTSWGRRGGGGDYWGQGTQVTVSS
Resp: high polyreactivity

Req: Give me measured polyreactivity (PSR sort gate), please, for this sequence: QVQLVESGGGLVQAGGSLRLSCAASGGTFLYNAMGWYRQAPGKERELVAAISRSGGRTDYADSVKGRFTISRDNAKNTVYLQMNSLKPEDTAVYYCATPGTYYTHRYRYDYWGHGTQVTVSS
Resp: high polyreactivity

Req: # return recorded polyreactivity (PSR sort gate) for entry QVQLVESGGGLVQAGGSLRLSCAASGSTFVDYAMGWYRPAPGKERELVAAINSDGGGTYYADSVKGRFTISRDNAKNTVYLQMNSLKPEDTAVYYCAAVGYTTYRRYDYWGQGTQVTVSS
Resp: low polyreactivity

Req: Output measured polyreactivity (PSR sort gate) for this item: QVQLVESGGGLVQAGGSLRLSCAASGRTISVYGMGWSRQAPGKERELVASITWRGGTTYYADSVKGRFTISRDNAKNSVYLQMNRLKPEDTAVYYCAAYWPYTTYRYRYDYWGQGTQVTVSS
Resp: high polyreactivity

Req: Complete the entry with polyreactivity (PSR sort gate) for EEELVESGGGLVQAGGSLRLSCAASARISTVMLWDWYRQAPGKDRELVAAITKSGGSTYYADSVKGRFTISRDNAKNTVYLQMNSLIPEDTAVYYCAADRYAILFYAEDYWGQGTQETVSS
Resp: low polyreactivity

Req: Fill in reported polyreactivity (PSR sort gate) for this entry: QVQLVESGGGLVQAGGSLRLSCAASGRTFSVYAMGWYRQAPGKERELVAVIRGRGGRTYYADSVKGRFTISRDNAKNTVYLQMNSLKPEDTAVYYCNAVGQIVYGKQYDYWGQGTQVTVSS
Resp: high polyreactivity
